Molecular target: IRAK4 (Homo sapiens, UniProt Q9NWZ3)
Construct: Degradation of IRAK4 in OCI-LY10 was quantitatively measured using Meso Scale Discovery technology; endogenous in cells; host or cells: OCI-LY10
Sequence (Q9NWZ3 1-460): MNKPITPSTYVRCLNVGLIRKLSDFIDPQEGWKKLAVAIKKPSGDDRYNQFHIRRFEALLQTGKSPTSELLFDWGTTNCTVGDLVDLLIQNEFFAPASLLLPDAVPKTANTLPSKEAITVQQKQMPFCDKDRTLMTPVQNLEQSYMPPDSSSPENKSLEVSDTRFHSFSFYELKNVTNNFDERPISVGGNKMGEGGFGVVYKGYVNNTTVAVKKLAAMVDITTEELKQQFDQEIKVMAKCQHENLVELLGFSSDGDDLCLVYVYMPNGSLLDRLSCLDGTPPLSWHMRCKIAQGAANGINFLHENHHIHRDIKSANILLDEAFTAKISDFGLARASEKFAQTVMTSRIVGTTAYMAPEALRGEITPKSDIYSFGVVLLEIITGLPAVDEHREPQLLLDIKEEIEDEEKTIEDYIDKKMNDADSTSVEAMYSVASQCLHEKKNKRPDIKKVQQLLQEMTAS
Test: IRAK4 MSD Degradation in OCI-LY10
Type: cell-based
Details: OCI-LY10 cells, 4 hrs incubation, MSD; read-out: IRAK4 degradation in OCI-LY10 at 4 hrs: DC50
Measured DC50 of individual entries

Example results:
{"columns": ["MOLECULE", "MEASURED ON", "RESULT"],
 "data": [
  ["Cn1c(=O)n(C2CCC(=O)NC2=O)c2cccc(C#CCOC3CCN(C[C@H]4CC[C@H](n5cc(NC(=O)c6cnn7ccc(N8CCC(F)(F)CC8)nc67)c(C(F)F)n5)CC4)CC3)c21 (stereo partly shown)", "IRAK4 (Homo sapiens, UniProt Q9NWZ3)", "> 200 nM"],
  ["COc1ccc([C@H]2CC[C@H](CN3CCC(OCC#Cc4cccc5c4n(C)c(=O)n5C4CCC(=O)NC4=O)CC3)CC2)cc1NC(=O)c1cnn2ccc(N3C[C@H]4C[C@@H]3CO4)nc12 (stereo partly shown)", "IRAK4 (Homo sapiens, UniProt Q9NWZ3)", "> 200 nM"],
  ["CC(C)(O)c1cc2nn([C@H]3CC[C@H](CNCCCCCCNc4cccc5c4C(=O)N(C4CCC(=O)NC4=O)C5=O)CC3)cc2cc1NC(=O)c1cccc(C(F)(F)F)n1 (stereo partly shown)", "IRAK4 (Homo sapiens, UniProt Q9NWZ3)", "> 200 nM"],
  ["Cn1c(=O)n(C2CCC(=O)NC2=O)c2cccc(C3CCN(C[C@H]4CC[C@H](n5cc6cc(NC(=O)c7cccc(C(F)(F)F)n7)c(C(F)F)cc6n5)CC4)CC3F)c21 (stereo partly shown)", "IRAK4 (Homo sapiens, UniProt Q9NWZ3)", "> 200 nM"],
  ["Cn1c(=O)n(C2CCC(=O)NC2=O)c2cccc(N3CCC(N(C[C@H]4CC[C@H](n5cc(NC(=O)c6cnn7cccnc67)c(C(F)F)n5)CC4)C(F)(F)F)CC3)c21 (stereo partly shown)", "IRAK4 (Homo sapiens, UniProt Q9NWZ3)", "> 200 nM"],
  ["Cn1c(=O)n(C2CCC(=O)NC2=O)c2cccc(N3CCN([C@@H]4CCN(C[C@H]5CC[C@H](n6cc(NC(=O)c7cnn8ccc(N9C[C@H]%10C[C@@H]9CO%10)nc78)c(C(F)F)n6)CC5)C[C@@H]4F)CC3)c21 (stereo partly shown)", "IRAK4 (Homo sapiens, UniProt Q9NWZ3)", "> 200 nM"],
  ["CN(CC[C@H]1CC[C@H](n2cc(NC(=O)c3cnn4cccnc34)c(C(F)F)n2)CC1)C1CCN(c2cccc3c2n(C)c(=O)n3C2CCC(=O)NC2=O)CC1(F)F (stereo partly shown)", "IRAK4 (Homo sapiens, UniProt Q9NWZ3)", "> 200 nM"],
  ["O=C1CCC(c2cc(C#CCN3CCN(C[C@H]4CC[C@@H](n5cc(NC(=O)c6cnn7ccc(N8C[C@H]9C[C@@H]8CO9)nc67)c(C(F)F)n5)CC4)CC3)ccc2Cl)C(=O)N1 (stereo partly shown)", "IRAK4 (Homo sapiens, UniProt Q9NWZ3)", "> 200 nM"]
]}

Please report the recorded DC50 for Cn1c(=O)n(C2CCC(=O)NC2=O)c2cccc([C@H]3CCN(C[C@H]4CC[C@H](n5cc6cc(NC(=O)c7cccc(C(F)F)n7)ccc6n5)CC4)C[C@H]3F)c21 (stereo partly shown) . > 200 nM

Please report the recorded DC50 for CN(C[C@H]1CC[C@H](n2cc3cc(NC(=O)c4cccc(C(F)(F)F)n4)c([S+](C)[O-])cc3n2)CC1)C1CCN(c2cccc3c2n(C)c(=O)n3C2CCC(=O)NC2=O)CC1F (stereo partly shown) . > 200 nM
